System: human apolipoprotein B mRNA
Test: Inhibition of human apolipoprotein B mRNA levels in HepG2 cells, quantitative real-time PCR
Type: cell-based
Conditions: HepG2 cells; 50 nm oligonucleotide; variable deoxy gap position
measured.endpoint: % INHIB 50 nm (%)

{"substance": "308640 (AGGTTACCAGCCACATGCAG; 2-10-8 MOE gapmer, phosphorothioate, chemistry not fully specified) [compound 308640]", "measured.endpoint": "% INHIB 50 nm", "recorded.measurement": 76}
{"substance": "308659 (antisense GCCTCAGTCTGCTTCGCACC; 9-10-1 2'-MOE gapmer, phosphorothioate, chemistry not fully specified) [compound 308659]", "measured.endpoint": "% INHIB 50 nm", "recorded.measurement": 70}
{"substance": "308638 (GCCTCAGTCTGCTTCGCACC; 1-10-9 MOE gapmer, phosphorothioate, chemistry not fully specified) [compound 308638]", "measured.endpoint": "% INHIB 50 nm", "recorded.measurement": 91}
{"substance": "308635 (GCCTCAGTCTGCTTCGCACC; 10-10-0 MOE gapmer, phosphorothioate, chemistry not fully specified) [compound 308635]", "measured.endpoint": "% INHIB 50 nm", "recorded.measurement": 69}
{"substance": "308644 (antisense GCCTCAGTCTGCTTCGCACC; 3-10-7 2'-MOE gapmer, phosphorothioate, chemistry not fully specified) [compound 308644]", "measured.endpoint": "% INHIB 50 nm", "recorded.measurement": 71}
